assay: in vivo; conditions: rat, plasma, iv, 0.03 mg, Plasma Level, 30 μg/rat, 90 min, individual rats I, II, III
property_name: concentration at […]

IN: State the recorded concentration at […] for this entry: `C=CCN1CC[C@]23c4c5ccc(O)c4O[C@H]2C(=O)CC[C@@]3(O)[C@H]1C5`
OUT: 3.01 ng/mL

---

experiment: in vivo; conditions: rat, plasma, 0.03 mg, Plasma Level, Mean, nasal, 30 μg/rat, 120 min, mean of 3 rats
property_name: concentration at 2 h (ng/mL)
Hi! Could you send only the number? It should be in ng/mL, unit omitted.

IN: Item `C=CCN1CC[C@]23c4c5ccc(O)c4O[C@H]2C(=O)CC[C@@]3(O)[C@H]1C5` has what recorded concentration at 2 h?
OUT: 2.59
